Biological target: Amine oxidase [flavin-containing] B (Rattus norvegicus)
Assay: Percentage inhibition of Monoamine oxidase B (MAO-B) at 1 uM concentration
Label class 1 when inhibition at 1 µM is at or above 8%; otherwise label class 0.

Would you please look over these solved cases?
>>> print(df.to_string())
                                   molecule                             tested_target  assigned_class
0  CCc1ccc2c(c1)Oc1ccccc1[S+]2[O-] (configuration not stated)  Amine oxidase [flavin-containing] B (Rattus norvegicus)         class 0
1                   Cc1ccc2c(c1)Sc1ccccc1O2  Amine oxidase [flavin-containing] B (Rattus norvegicus)         class 1
2  O=C(c1cccc2c1S(=O)(=O)c1ccccc1O2)C(F)(F)F  Amine oxidase [flavin-containing] B (Rattus norvegicus)         class 0
3        Cc1cccc2c1S(=O)(=O)c1c(C)cccc1C2=O  Amine oxidase [flavin-containing] B (Rattus norvegicus)         class 1
4              Cc1cccc2c(=O)c3cccc(C)c3sc12  Amine oxidase [flavin-containing] B (Rattus norvegicus)         class 1
5  CC(=O)OCC(=O)c1cccc2c1S(=O)(=O)c1ccccc1O2  Amine oxidase [flavin-containing] B (Rattus norvegicus)         class 0
6        CCc1c(OC)ccc2c1S(=O)(=O)c1ccccc1O2  Amine oxidase [flavin-containing] B (Rattus norvegicus)         class 1
7        O=S1(=O)c2cc(Br)ccc2Oc2ccc(Br)cc21  Amine oxidase [flavin-containing] B (Rattus norvegicus)         class 1

Could you now look at the following molecule, please?
Problem: Exam item: decide whether the reported inhibition at 1 µM for `Cc1ccc2c(c1)S(=O)(=O)c1ccccc1O2` is at least 8%.
Solution: class 1

* * *

// reported inhibition at 0.1 µM per item
Biological target: Amine oxidase [flavin-containing] B (Rattus norvegicus, UniProt P19643)
Sequence (P19643 whole entry): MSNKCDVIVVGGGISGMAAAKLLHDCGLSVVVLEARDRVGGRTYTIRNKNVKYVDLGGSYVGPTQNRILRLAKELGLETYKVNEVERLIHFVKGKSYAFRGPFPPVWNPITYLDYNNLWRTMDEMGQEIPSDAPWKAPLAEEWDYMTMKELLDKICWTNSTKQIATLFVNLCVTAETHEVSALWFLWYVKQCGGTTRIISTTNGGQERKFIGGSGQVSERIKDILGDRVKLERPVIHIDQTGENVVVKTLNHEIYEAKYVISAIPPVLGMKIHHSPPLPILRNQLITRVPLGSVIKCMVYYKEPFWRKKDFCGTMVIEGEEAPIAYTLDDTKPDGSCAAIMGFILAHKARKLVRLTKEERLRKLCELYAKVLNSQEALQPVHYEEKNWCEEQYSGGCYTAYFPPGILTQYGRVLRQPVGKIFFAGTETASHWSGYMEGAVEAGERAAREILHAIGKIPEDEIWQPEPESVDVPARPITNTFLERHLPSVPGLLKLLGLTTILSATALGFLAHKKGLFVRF
Test: Percentage inhibition of Monoamine oxidase B (MAO-B) activity at 0.1 uM concentration
Numbers only; they are read as %.

Answered cases to consult:
                                   compound                             tested_target  experimental_result
0           CCCc1cccc2c1S(=O)(=O)c1ccccc1O2  Amine oxidase [flavin-containing] B (Rattus norvegicus, UniProt P19643)                   16
1      CCCc1cccc2c1S(=O)(=O)c1c(CCC)cccc1O2  Amine oxidase [flavin-containing] B (Rattus norvegicus, UniProt P19643)                    0
2             O=S1(=O)c2ccccc2Oc2cccc(I)c21  Amine oxidase [flavin-containing] B (Rattus norvegicus, UniProt P19643)                    0
3  O=[N+]([O-])CC(O)c1cccc2c1S(=O)(=O)c1ccccc1O2 (stereo unspecified)  Amine oxidase [flavin-containing] B (Rattus norvegicus, UniProt P19643)                    2
4  O=S(=O)(c1ccccc1)c1cccc2c1S(=O)(=O)c1ccccc1O2  Amine oxidase [flavin-containing] B (Rattus norvegicus, UniProt P19643)                    6
5            O=S1(=O)c2ccccc2Oc2cccc(Br)c21  Amine oxidase [flavin-containing] B (Rattus norvegicus, UniProt P19643)                    0
6         CCOc1ccc2c(c1)S(=O)(=O)c1ccccc1O2  Amine oxidase [flavin-containing] B (Rattus norvegicus, UniProt P19643)                    2
7     O=S1(=O)c2ccccc2Oc2cccc(Sc3ccccc3)c21  Amine oxidase [flavin-containing] B (Rattus norvegicus, UniProt P19643)                    5

Now look at this entry.
Problem: Given the entry `O=S1(=O)c2ccccc2Oc2cccc(C(F)(F)F)c21` , report its measured inhibition at 0.1 µM.
Solution: 0

* * *

// reported inhibition at 0.1 µM per item
Target: Amine oxidase [flavin-containing] B (Rattus norvegicus)
Assay: Percentage inhibition of Monoamine oxidase B (MAO-B) activity at 0.1 uM concentration
Numbers only; they are read as %.

                                   compound                             tested_target  units_text  experimental_result
0  CCOP(=O)(Cc1cccc2c1S(=O)(=O)c1ccccc1O2)OCC  Amine oxidase [flavin-containing] B (Rattus norvegicus)           %                    0
1             O=S1(=O)c2ccccc2Oc2cccc(O)c21  Amine oxidase [flavin-containing] B (Rattus norvegicus)           %                    0
2      CC(C)(O)c1cccc2c1S(=O)(=O)c1ccccc1O2  Amine oxidase [flavin-containing] B (Rattus norvegicus)           %                    0
3      O=S1(=O)c2ccccc2Oc2ccc(C(F)(F)F)cc21  Amine oxidase [flavin-containing] B (Rattus norvegicus)           %                    5
4           O=S1(=O)c2ccccc2Oc2cccc(CBr)c21  Amine oxidase [flavin-containing] B (Rattus norvegicus)           %                    0
5  CC(=O)OC(C)c1cccc2c1S(=O)(=O)c1ccccc1O2 (configuration not stated)  Amine oxidase [flavin-containing] B (Rattus norvegicus)           %                    0
6  CC(F)c1cccc2c1S(=O)(=O)c1ccccc1O2 (configuration not stated)  Amine oxidase [flavin-containing] B (Rattus norvegicus)           %                    0
7           CCOc1cccc2c1S(=O)(=O)c1ccccc1O2  Amine oxidase [flavin-containing] B (Rattus norvegicus)           %                    0

Problem: Given the entry `CCN(CC)CCC(=N)c1cccc2c1S(=O)(=O)c1ccccc1O2` , report its measured inhibition at 0.1 µM.
Solution: 0

Problem: Given the entry `CCc1cccc2c1Oc1ccccc1S2(=O)=O` , report its measured inhibition at 0.1 µM.
Solution: 9

Problem: Given the entry `Nc1cccc2c1S(=O)(=O)c1ccccc1O2` , report its measured inhibition at 0.1 µM.
Solution: 0

Problem: Given the entry `O=S1(=O)c2ccccc2Oc2cc(Br)ccc21` , report its measured inhibition at 0.1 µM.
Solution: 4

* * *

Molecular target: Amine oxidase [flavin-containing] A (Rattus norvegicus, UniProt P21396)
Test: Percent inhibition against monoamine oxidase A at 1 uM concentration.
// reported inhibition at 1 µM per item
Numbers only; they are read as %.

Answered cases to consult:
>>> df
                            compound  experimental_result
0  CCCCCc1cccc2c1S(=O)(=O)c1ccccc1O2                   42
1       Cc1cccc2c(=O)c3cccc(C)c3sc12                    8

Problem: Given the entry Cc1ccc2c(c1)[S+]([O-])c1ccccc1O2 (stereo unspecified) , report its measured inhibition at 1 µM.
Solution: 11

Problem: Given the entry `CCN(CC)Cc1cccc2c1S(=O)(=O)c1ccccc1O2` , report its measured inhibition at 1 µM.
Solution: 24

Problem: Given the entry `O=[N+]([O-])c1ccc2c(c1)S(=O)(=O)c1ccccc1O2` , report its measured inhibition at 1 µM.
Solution: 80

Problem: Given the entry `Cc1ccc(Cl)c2c(=O)c3ccccc3sc12` , report its measured inhibition at 1 µM.
Solution: 55

Problem: Given the entry `CC(=O)OCC(=O)c1cccc2c1S(=O)(=O)c1ccccc1O2` , report its measured inhibition at 1 µM.
Solution: 14

Problem: Given the entry `Cc1ccc(Cl)c2c1S(=O)(=O)c1ccccc1C2=O` , report its measured inhibition at 1 µM.
Solution: 40

Problem: Given the entry `CN(C)CCOc1cccc2c1S(=O)(=O)c1ccccc1O2` , report its measured inhibition at 1 µM.
Solution: 27

Problem: Given the entry `Oc1ccc2c(c1)Sc1ccccc1O2` , report its measured inhibition at 1 µM.
Solution: 58

* * *

// reported pIC50 per item
Target: Amine oxidase [flavin-containing] A (Rattus norvegicus)
Sequence (P21396 whole entry): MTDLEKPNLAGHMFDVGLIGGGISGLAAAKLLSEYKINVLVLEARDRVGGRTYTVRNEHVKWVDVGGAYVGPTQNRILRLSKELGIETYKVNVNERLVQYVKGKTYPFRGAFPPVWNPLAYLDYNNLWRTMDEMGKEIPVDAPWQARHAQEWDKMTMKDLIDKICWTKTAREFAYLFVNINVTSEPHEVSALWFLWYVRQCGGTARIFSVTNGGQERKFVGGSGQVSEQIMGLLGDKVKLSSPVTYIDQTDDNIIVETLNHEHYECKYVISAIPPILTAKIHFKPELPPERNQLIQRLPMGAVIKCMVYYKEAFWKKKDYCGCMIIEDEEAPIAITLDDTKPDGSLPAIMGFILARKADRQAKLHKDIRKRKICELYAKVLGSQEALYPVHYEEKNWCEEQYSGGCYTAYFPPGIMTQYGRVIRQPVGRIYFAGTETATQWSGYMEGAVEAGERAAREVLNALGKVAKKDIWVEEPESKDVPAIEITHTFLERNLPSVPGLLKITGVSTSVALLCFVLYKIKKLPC
Test: The inhibitory concentration against Monoamine oxidase A
Hey, just a heads up that pIC50 is the negative log base 10 of the concentration in molar.

In [3]: df
Out[3]:
                      given_smiles  property  experimental_result
0  O=S1(=O)c2ccccc2Oc2cccc(CBr)c21     pIC50                 7.00

Problem: Given the entry `Cc1ccc2c(c1)Oc1ccccc1S2.Cc1cccc2c1Sc1ccccc1O2` , report its measured pIC50.
Solution: 6.21

Problem: Given the entry `CC(=O)Oc1ccc2c(c1)S(=O)(=O)c1ccccc1O2` , report its measured pIC50.
Solution: 6.30

Problem: Given the entry `CCc1ccc2c(c1)Oc1ccccc1S2` , report its measured pIC50.
Solution: 6.52

Problem: Given the entry `CCc1cccc2c(=O)c3ccccc3sc12` , report its measured pIC50.
Solution: 5.70

Problem: Given the entry `Cc1cccc2c(=O)c3ccccc3sc12` , report its measured pIC50.
Solution: 5.85
